Test system: NCI-H460
measurementNotes: NCI tumour cell line growth inhibition, 48 h
Activity calls are given as the source filed them. Cut-off read from the data, not from the text of the source: active = GI50 up to about 1.1 µM and inactive = higher.

- compound: "CCOC(=O)C(=O)Nc1c(N(CC)CC)n2ccccc2nc1=O"
  assayTarget: "NCI-H460"
  GI50: "> 100 µM (inactive)"
- compound: "CC(N)C(C)Cc1ccccc1 (stereo not drawn)"
  assayTarget: "NCI-H460"
  GI50: "> 100 µM (inactive)"
- compound: "COc1ccc(-c2ncn(C[Si](C)(C)C)c2-c2ccc(OC)cc2)cc1"
  assayTarget: "NCI-H460"
  GI50: "3.77 µM (inactive)"
- compound: "CNC(=O)C1CCc2nnc(-c3ccccc3)n21 (stereo not drawn)"
  assayTarget: "NCI-H460"
  GI50: "> 100 µM (inactive)"
- compound: "CC(C)c1cc(OCC(O)CO)cc(C(C)C)c1 (stereo not drawn)"
  assayTarget: "NCI-H460"
  GI50: "> 100 µM (inactive)"
- compound: "c1cc(-c2cscc2-c2ccsc2)cs1"
  assayTarget: "NCI-H460"
  GI50: "43.9 µM (inactive)"
- compound: "Cc1nc2cccc(F)c2c(=O)n1C1CCCCNC1=O (stereo not drawn)"
  assayTarget: "NCI-H460"
  GI50: "> 10 µM (inactive)"
- compound: "COc1cccc(/C=N/[N+](C)(C)C)c1O"
  assayTarget: "NCI-H460"
  GI50: "> 10 µM (inactive)"
- compound: "Brc1ccc(-c2cc3c(cc2C2SCCS2)OCO3)cc1"
  assayTarget: "NCI-H460"
  GI50: "29.6 µM (inactive)"
- compound: "COc1ccc(C2=NN(c3nsc4ccccc34)C(=O)CC2)cc1"
  assayTarget: "NCI-H460"
  GI50: "62.7 µM (inactive)"
- compound: "O=c1ccn([C@H]2CSC[C@@H](CO)C2)c(=O)[nH]1"
  assayTarget: "NCI-H460"
  GI50: "> 100 µM (inactive)"
- compound: "Cn1c(=O)n(C2(C)CSC2)c2ccccc21"
  assayTarget: "NCI-H460"
  GI50: "> 100 µM (inactive)"
- compound: "Oc1ccc(/C=N/CC2CCCN3CCCCC23)cc1 (stereo not drawn)"
  assayTarget: "NCI-H460"
  GI50: "25.1 µM (inactive)"

---

Tested on: UACC-257
measurementNotes: NCI tumour cell line growth inhibition, 48 h
The source made the active and inactive calls. No stated cut-off is given here; in the data, active = GI50 up to about 1.1 µM and inactive = higher.

- compound: "CO/N=C\\c1ccc2c(c1)Sc1ccccc1O2"
  assayTarget: "UACC-257"
  GI50: "57 µM (inactive)"
- compound: "CCOC(=O)c1cc2c([N+](=O)[O-])c(NC(C)=O)ccc2s1"
  assayTarget: "UACC-257"
  GI50: "> 100 µM (inactive)"
- compound: "Cc1c(-c2nnc(-c3ccccc3)o2)c(=O)n(-c2ccccc2)n1C"
  assayTarget: "UACC-257"
  GI50: "> 100 µM (inactive)"
- compound: "COc1ccc(C2CC(c3sc(Nc4ccc(C)cc4)nc3C)=NN2)cc1 (stereo not drawn)"
  assayTarget: "UACC-257"
  GI50: "15.8 µM (inactive)"
- compound: "O=[N+]([O-])c1ccc(Cl)c(C2SCc3nc4ccccc4n32)c1 (stereo not drawn)"
  assayTarget: "UACC-257"
  GI50: "28.1 µM (inactive)"
- compound: "CN(C)CCNC(=O)Cc1ccccc1Nc1c(Cl)cccc1Cl"
  assayTarget: "UACC-257"
  GI50: "12.8 µM (inactive)"
- compound: "O=C(O)Cc1cccc2c1OC(c1ccccc1)C(C(=O)c1ccccc1)C2=O (stereo not drawn)"
  assayTarget: "UACC-257"
  GI50: "> 100 µM (inactive)"
- compound: "COc1ccc(/N=N/c2ccc3oc(=O)c(C(=O)Nc4ccccc4)cc3c2)cc1"
  assayTarget: "UACC-257"
  GI50: "> 10 µM (inactive)"
- compound: "CC1CC(NC2CCCCC2)=Nc2ccccc2N1Cc1ccccc1 (stereo not drawn)"
  assayTarget: "UACC-257"
  GI50: "3.45 µM (inactive)"
- compound: "Nc1ccc2nc(-c3cccc(Cl)c3)cc(O)c2c1"
  assayTarget: "UACC-257"
  GI50: "> 100 µM (inactive)"
- compound: "O=C(CCn1[nH]c(=O)c(Cl)c(Cl)c1=O)NNC(=O)C[n+]1ccccc1"
  assayTarget: "UACC-257"
  GI50: "> 10 µM (inactive)"
- compound: "O=C(c1cccc(F)c1F)N1CCc2c([nH]c3ccccc23)C1c1ccc2c(c1)OCO2 (stereo not drawn)"
  assayTarget: "UACC-257"
  GI50: "11.2 µM (inactive)"
- compound: "Cc1cc(S(=O)(=O)Nc2n[nH]c(-c3ccc(Cl)cn3)n2)c(S)cc1Cl"
  assayTarget: "UACC-257"
  GI50: "> 100 µM (inactive)"

---

Documented GI50 across a set of compounds
Tested on: SK-MEL-2
measurementNotes: NCI tumour cell line growth inhibition, 48 h
The source made the active and inactive calls. Rule as the data show it: active = GI50 up to about 1.1 µM and inactive = higher.

- compound: "Cc1cc(Cc2cc(Cc3cc(C)cc(C(C)(C)C)c3O)c(C)cc2C)c(O)c(C(C)(C)C)c1"
  GI50: "> 100 µM (inactive)"
- compound: "Cc1csc2c1C(=O)c1ccsc1C2=O"
  GI50: "2.03 µM (inactive)"
- compound: "CCOc1ccc2[nH]c3c(C)c4cc[n+](C)cc4c(C)c3c2c1"
  GI50: "1.51 µM (inactive)"
- compound: "O=C1SC(c2ccc(Cl)cc2)(c2ccc(Cl)cc2)c2ccccc21"
  GI50: "22.6 µM (inactive)"
- compound: "CCOC(=O)c1c(O)nc2cccc3c2c1-c1cccnc1S3"
  GI50: "56.1 µM (inactive)"
- compound: "CN1CCc2c(sc3ncn(Nc4ccc(Cl)cc4)c(=N)c23)C1"
  GI50: "> 100 µM (inactive)"
- compound: "Cc1ccc(N2C(=O)/C(=C/c3ccc(N(CCC#N)CCC#N)cc3C)N=C2c2cc([N+](=O)[O-])ccc2Cl)cc1"
  GI50: "> 100 µM (inactive)"
- compound: "Cc1ccccc1NC(=O)C(=O)CC(=O)c1sc(Nc2ccccc2[N+](=O)[O-])nc1C"
  GI50: "56.6 µM (inactive)"
- compound: "COC(=O)c1c[nH]cc1CCc1c[nH]cc1C(=O)OC"
  GI50: "> 100 µM (inactive)"
- compound: "NC(=O)C[S+]([O-])CC(N)C(=O)O (stereo unspecified)"
  GI50: "> 100 µM (inactive)"
- compound: "CCc1c(OC(C)=O)c2c(NC3OC(COC(C)=O)C(OC(C)=O)C(OC(C)=O)C3OC(C)=O)nc(SC)nc2oc1=O (stereo unspecified)"
  GI50: "> 100 µM (inactive)"
- compound: "Cc1cc2c(c(C(N)=O)c1C)-c1cccc(Cl)c1C2=O"
  GI50: "> 100 µM (inactive)"
- compound: "O=c1[nH]c2c(Nc3c4ccccc4nc4ccccc34)c([N+](=O)[O-])c(Nc3c4ccccc4nc4ccccc34)c([N+](=O)[O-])c2[nH]1"
  GI50: "1.87 µM (inactive)"
- compound: "CNC(=S)N/N=C(\\C)c1cc(OC)ccc1O"
  GI50: "> 100 µM (inactive)"
- compound: "O=C(COc1ccc(Cl)c(Cl)c1)Nc1ccc[n+](Cc2ccc(S(=O)(=O)F)c(Cl)c2)c1"
  GI50: "> 100 µM (inactive)"
- compound: "CC(C)(C)[Si](OC1CCOC1=O)(c1ccccc1)c1ccccc1 (stereo unspecified)"
  GI50: "16.6 µM (inactive)"

---

Tested on: U-251
measurementNotes: NCI tumour cell line growth inhibition, 48 h
Calls of active or inactive are those of the source. Cut-off read from the data, not from the text of the source: active = GI50 up to about 1.1 µM and inactive = higher.
experimentalEndpoint: GI50

- molecule: "c1ccc2sc(C3(N4CCCCC4)CCCCCC3)cc2c1"
  experimentalEndpoint: "GI50"
  dataValue: "17.3 µM (inactive)"
- molecule: "O=C(O)Cc1cccc2c1OC(c1ccccc1)C(C(=O)c1ccccc1)C2=O (stereo not drawn)"
  experimentalEndpoint: "GI50"
  dataValue: "40.9 µM (inactive)"
- molecule: "CCOC(=O)N1C2C=C(C)C(ON2C(=O)c2ccccc2)C2C(C)C(=O)N21 (stereo not drawn)"
  experimentalEndpoint: "GI50"
  dataValue: "> 100 µM (inactive)"
- molecule: "N#Cc1cc([N+](=O)[O-])ccc1NC(=O)/C(=N/N)C(C(=O)c1ccc(Cl)c(Cl)c1)C1OC(=O)c2ccccc21 (stereo not drawn)"
  experimentalEndpoint: "GI50"
  dataValue: "42.9 µM (inactive)"
- molecule: "COc1cc(/C=C2\\N=C(c3ccccc3)N(c3ccc(C(=O)c4ccccc4)cc3N3C(=O)/C(=C/c4ccc(O)c(OC)c4)N=C3c3ccccc3)C2=O)ccc1O"
  experimentalEndpoint: "GI50"
  dataValue: "9.79 µM (inactive)"
- molecule: "COCN1C(=O)[C@@H]2CCCN2C(=O)c2cc([N+](=O)[O-])ccc21"
  experimentalEndpoint: "GI50"
  dataValue: "42 µM (inactive)"
- molecule: "O=C(O)c1cc(Cl)cc(NC(=O)C(Cl)Cl)c1Cl"
  experimentalEndpoint: "GI50"
  dataValue: "> 100 µM (inactive)"
- molecule: "CCOC(=O)c1c(Sc2ccc([N+](=O)[O-])cc2[N+](=O)[O-])nc2c3ccccc3ccn12"
  experimentalEndpoint: "GI50"
  dataValue: "31.8 µM (inactive)"
- molecule: "Cc1cc2c(cc1C)[n+]([O-])c(N1CCN(c3ccc([N+](=O)[O-])cc3)CC1)c(C#N)[n+]2[O-]"
  experimentalEndpoint: "GI50"
  dataValue: "17 µM (inactive)"
- molecule: "Cc1ccc(/N=N/C2S/C(=C(\\C#N)c3nc4ccccc4[nH]3)N(c3ccccc3)C2=O)cc1 (stereo not drawn)"
  experimentalEndpoint: "GI50"
  dataValue: "57.9 µM (inactive)"
- molecule: "CN(C)/C(F)=P\\C(F)(F)F (stereo not drawn)"
  experimentalEndpoint: "GI50"
  dataValue: "> 100 µM (inactive)"
- molecule: "CC(Oc1ccccc1Cl)C(=O)NN1C(=O)CSC1c1ccc(Cl)cc1 (stereo not drawn)"
  experimentalEndpoint: "GI50"
  dataValue: "17.8 µM (inactive)"
- molecule: "BrCC(Br)(c1ccccc1)c1ccccc1-c1cc(-c2ccccc2)cc(-c2ccccc2)n1 (stereo not drawn)"
  experimentalEndpoint: "GI50"
  dataValue: "1.48 µM (inactive)"
